FYI, the data here is from patent US20090137002A1.

TARGET_ENTITY: T1, myc-tagged human EphB4 on transfected CHO cells (human, UniProt P54760 16-987)
T1 construct: whole, on cells; also called CHO-EphB4; CHO-hEphB4; not shown: myc tag
T1 sequence (looked up): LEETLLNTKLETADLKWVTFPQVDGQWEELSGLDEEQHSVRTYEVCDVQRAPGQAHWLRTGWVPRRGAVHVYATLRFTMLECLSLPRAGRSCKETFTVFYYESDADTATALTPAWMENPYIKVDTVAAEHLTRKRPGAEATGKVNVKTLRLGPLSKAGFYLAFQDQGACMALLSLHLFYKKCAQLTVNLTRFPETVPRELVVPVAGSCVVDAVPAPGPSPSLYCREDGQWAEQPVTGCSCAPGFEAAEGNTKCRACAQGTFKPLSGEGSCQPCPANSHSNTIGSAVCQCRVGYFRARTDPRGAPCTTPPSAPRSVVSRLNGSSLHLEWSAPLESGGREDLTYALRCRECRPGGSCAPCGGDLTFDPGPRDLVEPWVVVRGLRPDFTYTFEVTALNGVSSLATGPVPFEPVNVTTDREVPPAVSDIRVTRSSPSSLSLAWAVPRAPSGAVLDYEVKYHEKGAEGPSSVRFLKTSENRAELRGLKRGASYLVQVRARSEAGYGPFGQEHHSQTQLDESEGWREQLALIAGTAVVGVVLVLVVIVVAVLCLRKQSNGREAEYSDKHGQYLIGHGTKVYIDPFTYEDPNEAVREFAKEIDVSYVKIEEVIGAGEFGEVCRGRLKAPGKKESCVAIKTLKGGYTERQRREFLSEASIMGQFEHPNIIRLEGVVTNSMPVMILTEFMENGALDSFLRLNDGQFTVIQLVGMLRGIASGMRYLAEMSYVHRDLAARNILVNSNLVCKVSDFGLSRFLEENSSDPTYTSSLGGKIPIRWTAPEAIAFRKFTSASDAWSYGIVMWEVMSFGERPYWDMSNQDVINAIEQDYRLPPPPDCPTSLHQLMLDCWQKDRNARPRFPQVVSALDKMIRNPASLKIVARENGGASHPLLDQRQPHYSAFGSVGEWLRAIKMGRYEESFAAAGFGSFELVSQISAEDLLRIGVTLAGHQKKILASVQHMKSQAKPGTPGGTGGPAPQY
PROTOCOL_NOTES: FACS, IgG4-Pro inhibition of murine ephrin-B2 binding to CHO-EphB4 cells
Overview of reported pIC50 across a group of binders:
To interpret pIC50, take it as minus log10 of a concentration measured in moles per litre.

Worked cases, answers included:
MOR07953 IgG4-Pro (antibody, V domains shown, Fab MOR07953 converted into human IgG4-Pro format) VH: QVELVESGGGLVQPGGSLRLSCAASGFTFNNAWMSWVRQAPGKGLEWVSAINAKGQFTSYADSVKGRFTISRDNSKNTLYLQMNSLRAEDTAVYYCARKGMSFYNNKYAKSMFDLWGQGTLVTVSS VL: DIELTQPPSVSVAPGQTARISCSGDNLGKKYVHWYQQKPGQAPVLVIYYDSKRPSGIPERFSGSNSGNTATLTISGTQAEDEADYYCQTWTLSHMGNVFGGGTKLTVLG : 9.64
MOR07724 IgG4-Pro (antibody, V domains shown, Fab MOR07724 converted into human IgG4-Pro format) VH: QVQLVESGGGLVQPGGSLRLSCAASGFTFNNAWMSWVRQAPGKGLEWVSGISADGVHKFYADSVKGRFTISRDNSKNTLYLQMNSLRAEDTAVYYCARKGMSFYNNKYAKSMFDLWGQGTLVTVSS VL: DIELTQPPSVSVAPGQTARISCSGDNLGKKYVHWYQQKPGQAPVLVIYYDSKRPSGIPERFSGSNSGNTATLTISGTQAEDEADYYCSAWTTTMMHIVFGGGTKLTVLG : 10.00
MOR07957 IgG4-Pro (antibody, V domains shown, Fab MOR07957 converted into human IgG4-Pro format) VH: QVELVQSGAEVKKPGSSVKVSCKASGGTFSTYAISWVRQAPGQGLEWMGQIIPIFGDADYAQKFQGRVTITADESTSTAYMELSSLRSEDTAVYYCARSSYTILTTYYNYNAMDNWGQGTLVTVSS VL: DIQMTQSPSSLSASVGDRVTITCRASQNINNFLNWYQQKPGKAPKLLIYGSSILQSGVPSRFSGSGSGTDFTLTISSLQPEDFATYYCQQNDFYSPSTFGQGTKVEIKR : 9.10
MOR07729 IgG4-Pro (antibody, V domains shown, Fab MOR07729 converted into human IgG4-Pro format) VH: QVELVQSGAEVKKPGSSVKVSCKASGGTFSTYAISWVRQAPGQGLEWMGRIIPIFGTANYAQKFQGRVTITADESTSTAYMELSSLRSEDTAVYYCARSSYTILTTYYNYNAMDNWGQGTLVTVSS VL: DIQMTQSPSSLSASVGDRVTITCRASQNINNFLNWYQQKPGKAPKLLIYGSSILQSGVPSRFSGSGSGTDFTLTISSLQPEDFATYYCQQYDFYLSGTFGQGTKVEIKR : 7.94
MOR07721 IgG4-Pro (antibody, V domains shown, Fab MOR07721 converted into human IgG4-Pro format) VH: QVQLVESGGGLVQPGGSLRLSCAASGFTFNNAWMSWVRQAPGKGLEWVSTIEAKMPNGATFYAAPVKGRFTISRDNSKNTLYLQMNSLRAEDTAVYYCARKGMSFYNNKYAKSMFDLWGQGTLVTVSS VL: DIELTQPPSVSVAPGQTARISCSGDNLGKKYVHWYQQKPGQAPVLVIYYDSKRPSGIPERFSGSNSGNTATLTISGTQAEDEADYYCSAWTTTMMHIVFGGGTKLTVLG : 9.80

The binder listed as MOR07720 IgG4-Pro (antibody, V domains shown, Fab MOR07720 converted into human IgG4-Pro format) VH: QVQLVESGGGLVQPGGSLRLSCAASGFTFNNAWMSWVRQAPGKGLEWVSQIEAKQPGGATSYAASVKGRFTISRDNSKNTLYLQMNSLRAEDTAVYYCARKGMSFYNNKYAKSMFDLWGQGTLVTVSS VL: DIELTQPPSVSVAPGQTARISCSGDNLGKKYVHWYQQKPGQAPVLVIYYDSKRPSGIPERFSGSNSGNTATLTISGTQAEDEADYYCSAWTTTMMHIVFGGGTKLTVLG has a reported pIC50 of 9.96

The binder listed as MOR07955 IgG4-Pro (antibody, V domains shown, Fab MOR07955 converted into human IgG4-Pro format) VH: QVELVQSGAEVKKPGSSVKVSCKASGGTFSTYAISWVRQAPGQGLEWMGKIIPIFGDADYAQKFQGRVTITADESTSTAYMELSSLRSEDTAVYYCARSSYTILTTYYNYNAMDNWGQGTLVTVSS VL: DIQMTQSPSSLSASVGDRVTITCRASQNINNFLNWYQQKPGKAPKLLIYGSSILQSGVPSRFSGSGSGTDFTLTISSLQPEDFATYYCSQDHFYPPSGTFGQGTKVEIKR has a reported pIC50 of 9.51
